I'd be grateful if you could share measured self-cleavage for these entries.
B1: Twister Ribozyme (parent)
chain: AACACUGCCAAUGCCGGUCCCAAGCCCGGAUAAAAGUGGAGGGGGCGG

- Variants of: B1
- assay procedure: self-cleavage, relative activity (ratio to wild type); higher = more cleavage; co-transcriptional
Just the number, please, no unit attached.

Prompt line: Dear colleague, I am looking for the recorded self-cleavage of the following variant: A4G C14A
Response line: 0.76

Prompt line: How about this variant: C9U C21A
Response line: 0.0683

Prompt line: How about this variant: U6C G7U
Response line: 0.0403

Prompt line: How about this variant: A2C C46A
Response line: 0.0436

Prompt line: How about this variant: C25U U37C
Response line: 0.133

Prompt line: How about this variant: A23U U37C
Response line: 0.0907

Prompt line: How about this variant: C27G G29U
Response line: 0.0759

Prompt line: How about this variant: G13U A35G
Response line: 0.127

Prompt line: How about this variant: C3G C46A
Response line: 0.624

Prompt line: How about this variant: U6A G24A
Response line: 0.116

Prompt line: How about this variant: G7U A10U
Response line: 0.0807
